Provide the reported melting point of each item.

For Cc1ccc(S(=O)(=O)N2CCC(c3ccc(C=O)cc3)CC2)cc1 , what is its reported melting point?
134 to 137 °C

Name the recorded melting point for COc1ccc2c(c1)C(=NNc1ccc(S(N)(=O)=O)cc1)C(=O)N2 .
> 250 °C

Entry under review: CC(C)Cn1c(=O)[nH]c(=O)c2cc(Cc3cccc4ccccc34)sc21 . Reported melting point?
189 to 190 °C

Find the recorded melting point belonging to CCNC(=O)CC1CCN(Cc2cnc3cc(NC(=O)c4ccc(-c5ccc(F)cc5)cc4)ccc3c2)CC1 and report it.
224 to 227 °C

# get_value(readout='melting point', item= CSCc1cnc2c(C)cccc2c1O )
226 to 228 °C

Consider the compound CC(C)(C)N1CN(Cc2ccccc2)C(N)=C2C=NN=C21 and give its measured melting point.
138 to 140 °C

Recorded melting point of Clc1ccc(C(=NN=Cc2cccnc2)SSC(=NN=Cc2cccnc2)c2ccc(Cl)cc2)cc1 , please.
143 to 145 °C

Please report the recorded melting point for Cc1cnc(N2C(=O)C(O)=C(C(=O)c3ccc(C(C)C)cc3)C2c2ccc(OC(F)(F)F)cc2)s1 (stereo unspecified) .
243 to 244 °C

Fill in: melting point of CCc1nc2c(o1)C(=O)C=C(Nc1ccccc1)C2=O is ___
200 °C

Consider the compound shown here: CO/C=C(/C(=O)OC)c1ccccc1C=CCO What is its recorded melting point?
78 to 80 °C

GET /values?readout=melting point&item= Cc1cccc2[nH]c(-c3ccccc3F)nc12
161 to 162 °C

---

Provide the reported melting point of each item.

Which melting point reading was recorded for the molecule Cc1ccccc1-c1c(C(=O)N(C)C)ccc2ccccc12 ?
95 to 97 °C

Can you share its melting point? I mean this molecule: C=CCn1c(-c2c(Cl)cccc2Cl)nc(-c2ccncc2)c1-c1ccc(C)cc1
147 to 149 °C

Given the molecule COc1ccc2c(c1)CC[C@@H](O)[C@@H]2N1CCCC1 (relative stereo) , what is its reported melting point?
79 to 80 °C

Consider the molecule shown here: O=C(O)c1cccc(NCc2cccc(Cl)c2)c1C(=O)O What is its recorded melting point?
207 to 209 °C

Given the entry Cn1cc(-c2nc(C(F)(F)F)c[nH]2)cn1 , report its measured melting point.
206 to 207 °C

Looking for the measured melting point of CCCCNC(=O)NS(=O)(=O)c1ccc(CCNC(=O)N2CC(C)=CC2=O)cc1 , can you help?
189 to 191 °C

Consider the molecule shown here: CCc1c([N+](=O)[O-])c(C(N)=O)nn1CCN1CCOCC1 What is its recorded melting point?
132 to 133 °C

---

Please provide measured melting point for the entries that follow.

// lookup melting point for CCOC(=O)c1cc2c(OC)ccnc2[nH]1
195 to 197 °C

Please look up its melting point: CCC1=CC(C)(C)Oc2c(OC)cc(Cc3cnc(N)nc3N)cc21
256 to 257 °C

Query (molecule): CC(C)C1(C)N=C(c2ccccc2C(=O)O)NC1=S (stereo not given) ; field requested: melting point
192 to 198 °C

Which value of melting point has been reported for CC(C)Oc1ccc2c(O)c(C(=O)O)nc(Cl)c2c1 in the records?
139 to 141 °C

Could you tell me which melting point is on file for O=C1C=C(c2ccc[nH]2)C(=O)c2ccccc21 ?
155 to 158 °C

I would be grateful if you could share the reported melting point for CN1CC(C#N)C(=O)c2cc3cc(F)c(F)cc3nc21 (stereo not given) .
144 °C

If you can, please state the reported melting point value of CCCCCCC(C)NC1=NS(=O)(=O)c2sc(Cl)cc2N1 (stereo not given) .
179 to 181 °C

Using the record for Cn1cc(C#N)c(Nc2ccccc2[N+](=O)[O-])n1 , report its melting point.
172 °C

Any idea what its melting point is? The molecule is COP(=O)(OC)C(O)=Cc1ccc(C)cc1
100 to 102 °C

Bench note: what melting point did COC(=O)CC(NC(=O)C1CCCCC1)C(C)=O (stereo not given) show?
87 to 88 °C

---

Would you mind telling me the reported melting point of each entry?

Recorded melting point for O=C(NCc1cccnc1)c1ccc2n1Cc1ccccc1N(C(=O)c1ccc(-c3ccccc3CN3CCCC3)cc1)C2 , please?
210 to 212 °C

Requested read-out: melting point. Entry: Cc1cccc(NCCC#N)c1C
65.5 to 67 °C

I have this molecule here, O=C(C=Cc1ccc(NC(=O)c2ccc3ccccc3c2)cc1)NO , and I need its recorded melting point.
231 to 233 °C

Param item = CNc1ccc2cnc(S(C)=O)nc2n1 (centres undefined) ; retrieve measured melting point.
185 °C

What value of measured melting point is listed for Fc1ccc(Nc2ncnc3cnc(N4CCC(CCCC5CCNCC5)CC4)nc23)cc1Cl ?
128 to 130 °C

Fill in: melting point of Cc1nc2c(O)c(CCC(=O)c3ccccc3)c(C(=O)N3CCC3)cc2n1C is ___
242 to 243 °C

Entry Cc1cc([N+](=O)[O-])c(C)nc1O : reported melting point = ?
263 °C

Which melting point is reported for this molecule? COC(=O)c1ccc(Cc2cccc3ccc(CC(C)C(=O)O)cc23)c(OC)c1 (centres undefined)
110 to 129 °C

// lookup melting point for CC(C=Cc1cccc(-c2cc3c(cc2C)C(C)(C)CCC3(C)C)c1)=CC(=O)O
99 to 101 °C

---

Kindly state melting point for each of the entries shown.

State the recorded melting point for this entry: COc1ccc(Cl)c(S(=O)(=O)NC(=O)c2nc3c(Cl)cc(C(F)(F)F)cn3c2C)c1
222 to 223 °C

Query: melting point; subject: CSc1ccc(-c2cnn(CC(F)(F)F)c(=O)c2Cl)cc1
130 to 139 °C

Value lookup for melting point; key = Cc1c(Sc2cc(Cl)c(Cl)cc2Cl)cc(C(C)(C)C)c(O)c1C(=O)Nc1ccc([N+](=O)[O-])cc1C(F)(F)F
179 to 180 °C

Returns the measured melting point for the input compound. Input: O=C1C(=Cc2ccsc2)CCc2cc(OCCn3ccnc3)ccc21
61 to 62 °C

State the recorded melting point for this entry: CCOc1ccc2c(c1)nc1n2CC(c2ccccn2)S1=O (stereo not given)
145 to 147 °C
